Record form. Attribute: bioavailability (% HC) oral Cmax. Fill in for each entry.
- experimental-protocol: Oral bioavailability of hydrocodone conjugates in rats
- test-settings: oral, rats, relative to hydrocodone
No end group written: not given here.
Answers are plain numbers, in % HC.

// below: answered substances
>>> recorded_measurement("Lys-Lys-Asp-Asp-Ile-HC (KKDDI-hydrocodone)")
121
>>> recorded_measurement("Glu-Glu-Ile-HC")
112

Parameters: items (list). Returns: bioavailability (% HC) oral Cmax for each item.
1. Asp-Asp-Gly-Gly-Ile-HC (DDGGI-hydrocodone)
2. Asp-Asp-Asp-Asp-Ile-HC (DDDDI-hydrocodone)
3. Pro-Leu-Ile-HC
4. Glu-Glu-Phe-Phe-Phe-Hydrocodone (EEFFF-hydrocodone) [Glu-Glu-Phe-Phe-Phe-HC]
5. Leu-Pro-Phe-HC
6. Glu-Glu-Gly-Gly-Ile-Hydrocodone (EEGGI-hydrocodone) [Glu-Glu-Gly-Gly-Ile-HC]
7. Lys-Lys-Pro-Pro-Ile-HC (KKPPI-hydrocodone)

Ans:
1: 80; 2: 110; 3: 172; 4: 89; 5: 125; 6: 77; 7: 76

Parameters: items (list). Returns: bioavailability (% HC) oral Cmax for each item.
1. Asp-Asp-Pro-Pro-Ile-HC (DDPPI-hydrocodone)
2. Glu-Glu-Phe-Phe-Ile-HC (EEFFI-hydrocodone)

Ans:
[95, 129]

====

- experimental-protocol: Intranasal bioavailability of hydrocodone conjugates in rats
- test-settings: relative to hydrocodone
No end group written: not given here.
experimental-readout: bioavailability (% HC) IN Cmax
Give bare numbers, in % HC.

// below: answered substances
>>> recorded_measurement("Asp-Asp-Pro-Pro-Ile-HC (DDPPI-hydrocodone)")
80
>>> recorded_measurement("Tyr-Tyr-Pro-Pro-Ile-HC (YYPPI-hydrocodone)")
10
>>> recorded_measurement("Gly-Gly-Glu-Glu-Ile-HC (GGEEI-hydrocodone)")
77
>>> recorded_measurement("Pro-Pro-Leu-HC")
48
>>> recorded_measurement("Asp-Asp-Gly-Gly-Ile-HC (DDGGI-hydrocodone)")
67
>>> recorded_measurement("Lys-Lys-Ile-HC")
94

Parameters: items (list). Returns: bioavailability (% HC) IN Cmax for each item.
1. Asp-Asp-Asp-Asp-Ile-HC (DDDDI-hydrocodone)
2. Glu-Glu-Ile-HC
3. Glu-Glu-Phe-Phe-Phe-Hydrocodone (EEFFF-hydrocodone) [Glu-Glu-Phe-Phe-Phe-HC]
4. Tyr-Tyr-Ile-HC

Ans:
1: 64; 2: 59; 3: 47; 4: 34

Parameters: items (list). Returns: bioavailability (% HC) IN Cmax for each item.
1. Lys-Lys-Pro-Pro-Ile-HC (KKPPI-hydrocodone)
2. Glu-Glu-Gly-Gly-Ile-Hydrocodone (EEGGI-hydrocodone) [Glu-Glu-Gly-Gly-Ile-HC]
3. Leu-Pro-Phe-HC
4. Tyr-Tyr-Phe-Phe-Ile-HC
5. Glu-Glu-Gly-Gly-Phe-HC (EEGGF-hydrocodone)
6. Glu-Glu-Asp-Asp-Ile-HC (EEDDI-hydrocodone)
7. Pro-Ile-Ile-HC
8. Asp-Asp-Phe-Phe-Ile-HC (DDFFI-hydrocodone)

Ans:
1. 94
2. 56
3. 101
4. 34
5. 97
6. 81
7. 102
8. 62

Parameters: items (list). Returns: bioavailability (% HC) IN Cmax for each item.
1. Pro-Leu-Ile-HC
2. Gly-Gly-Pro-Pro-Ile-HC (GGPPI-hydrocodone)
3. Lys-Lys-Asp-Asp-Ile-HC (KKDDI-hydrocodone)
4. Asp-Asp-Ile-HC

Ans:
[101, 56, 56, 93]

Q: Consider the substance shown here: Glu-Glu-Phe-Phe-Ile-HC (EEFFI-hydrocodone) What is its recorded bioavailability (% HC) IN Cmax?
Ans: 76

====

- experimental-protocol: Oral bioavailability of hydrocodone conjugates in rats
- test-settings: oral, rats, relative to hydrocodone
No end group written: not given here.
Record form. Attribute: bioavailability (% HC) oral AUC. Fill in for each entry.
Answer with the number, then the unit.

Parameters: items (list). Returns: bioavailability (% HC) oral AUC for each item.
1. Lys-Lys-Pro-Pro-Ile-HC (KKPPI-hydrocodone)
2. Gly-Gly-Glu-Glu-Ile-HC (GGEEI-hydrocodone)
3. Asp-Asp-Asp-Asp-Ile-HC (DDDDI-hydrocodone)

Ans:
80 % HC
96 % HC
79 % HC

Parameters: items (list). Returns: bioavailability (% HC) oral AUC for each item.
1. Lys-Lys-Asp-Asp-Ile-HC (KKDDI-hydrocodone)
2. Asp-Asp-Phe-Phe-Ile-HC (DDFFI-hydrocodone)
3. Asp-Asp-Gly-Gly-Ile-HC (DDGGI-hydrocodone)

Ans:
1: 90 % HC; 2: 115 % HC; 3: 82 % HC

Parameters: items (list). Returns: bioavailability (% HC) oral AUC for each item.
1. Lys-Lys-Ile-HC
2. Glu-Glu-Asp-Asp-Ile-HC (EEDDI-hydrocodone)
3. Leu-Pro-Phe-HC
4. Gly-Gly-Pro-Pro-Ile-HC (GGPPI-hydrocodone)
5. Pro-Ile-Ile-HC
6. Asp-Asp-Ile-HC
7. Glu-Glu-Phe-Phe-Ile-HC (EEFFI-hydrocodone)
8. Glu-Glu-Gly-Gly-Ile-Hydrocodone (EEGGI-hydrocodone) [Glu-Glu-Gly-Gly-Ile-HC]

Ans:
1. 80 % HC
2. 108 % HC
3. 106 % HC
4. 94 % HC
5. 104 % HC
6. 280 % HC
7. 96 % HC
8. 81 % HC

Parameters: items (list). Returns: bioavailability (% HC) oral AUC for each item.
1. Pro-Leu-Ile-HC
2. Tyr-Tyr-Pro-Pro-Ile-HC (YYPPI-hydrocodone)

Ans:
1. 141 % HC
2. 218 % HC

====

- experimental-protocol: Oral bioavailability of hydrocodone conjugates in rats
- test-settings: ratio of oral to intranasal AUC (% HC)
No end group written: not given here.
experimental-readout: Oral:IN Index AUC
Numbers only.

// below: answered substances
>>> recorded_measurement("Glu-Glu-Asp-Asp-Ile-HC (EEDDI-hydrocodone)")
2.04
>>> recorded_measurement("Leu-Pro-Phe-HC")
1.28
>>> recorded_measurement("Asp-Asp-Phe-Phe-Ile-HC (DDFFI-hydrocodone)")
2.05
>>> recorded_measurement("Glu-Glu-Ile-HC")
1.60
>>> recorded_measurement("Asp-Asp-Pro-Pro-Ile-HC (DDPPI-hydrocodone)")
2.04

Parameters: items (list). Returns: Oral:IN Index AUC for each item.
1. Glu-Glu-Gly-Gly-Phe-HC (EEGGF-hydrocodone)
2. Tyr-Tyr-Phe-Phe-Ile-HC
3. Asp-Asp-Ile-HC

Ans:
1: 1.24; 2: 4.35; 3: 4.75

====

- experimental-protocol: Oral bioavailability of hydrocodone conjugates in rats
- test-settings: ratio of oral to intranasal Cmax (% HC)
No end group written: not given here.
Record form. Attribute: Oral:IN Index Cmax. Fill in for each entry.
Numbers only.

// below: answered substances
>>> recorded_measurement("Glu-Glu-Asp-Asp-Ile-HC (EEDDI-hydrocodone)")
1.59
>>> recorded_measurement("Asp-Asp-Pro-Pro-Ile-HC (DDPPI-hydrocodone)")
1.19
>>> recorded_measurement("Leu-Pro-Phe-HC")
1.24
>>> recorded_measurement("Lys-Lys-Asp-Asp-Ile-HC (KKDDI-hydrocodone)")
2.16
>>> recorded_measurement("Glu-Glu-Gly-Gly-Phe-HC (EEGGF-hydrocodone)")
1.15

Parameters: items (list). Returns: Oral:IN Index Cmax for each item.
1. Asp-Asp-Ile-HC
2. Pro-Ile-Ile-HC
3. Lys-Lys-Ile-HC
4. Gly-Gly-Pro-Pro-Ile-HC (GGPPI-hydrocodone)
5. Gly-Gly-Glu-Glu-Ile-HC (GGEEI-hydrocodone)
6. Pro-Leu-Ile-HC
7. Lys-Lys-Pro-Pro-Ile-HC (KKPPI-hydrocodone)

Ans:
[2.56, 0.97, 0.81, 2.16, 1.55, 1.70, 0.81]

Parameters: items (list). Returns: Oral:IN Index Cmax for each item.
1. Glu-Glu-Phe-Phe-Ile-HC (EEFFI-hydrocodone)
2. Tyr-Tyr-Phe-Phe-Ile-HC

Ans:
1: 1.70; 2: 1.85

Parameters: items (list). Returns: Oral:IN Index Cmax for each item.
1. Asp-Asp-Gly-Gly-Ile-HC (DDGGI-hydrocodone)
2. Tyr-Tyr-Ile-HC
3. Pro-Pro-Leu-HC
4. Glu-Glu-Ile-HC

Ans:
1.19
6.88
2.25
1.90

Parameters: items (list). Returns: Oral:IN Index Cmax for each item.
1. Glu-Glu-Phe-Phe-Phe-Hydrocodone (EEFFF-hydrocodone) [Glu-Glu-Phe-Phe-Phe-HC]
2. Asp-Asp-Phe-Phe-Ile-HC (DDFFI-hydrocodone)
3. Asp-Asp-Asp-Asp-Ile-HC (DDDDI-hydrocodone)

Ans:
1: 1.89; 2: 2.69; 3: 1.72
